- Measurement Protocol: Dosing of screening agents, CellTiter-Glo cell viability assay
- Type: cell-based
- Condition Context: human, WT KBM7 cells, at the concentration chosen for screening (130 nM etoposide)
Measured Property: viability at 4 days, 130 nM

I would be grateful if you could share the reported viability at 4 days, 130 nM for COc1cc([C@@H]2c3cc4c(cc3[C@@H](O[C@@H]3O[C@@H]5CO[C@@H](C)O[C@H]5[C@H](O)[C@H]3O)[C@H]3COC(=O)[C@H]23)OCO4)cc(OC)c1O [etoposide] .
< 5%

* * *

- Measurement Protocol: CellTiter-Glo cell viability assay in HL60 cells
- Type: cell-based, human
- Condition Context: human, WT HL60 cells; at the concentration chosen for screening (200 nM etoposide); 4 days
Measured Property: viability at 4 days, 200 nM

I would be grateful if you could share the reported viability at 4 days, 200 nM for COc1cc([C@@H]2c3cc4c(cc3[C@@H](O[C@@H]3O[C@@H]5CO[C@@H](C)O[C@H]5[C@H](O)[C@H]3O)[C@H]3COC(=O)[C@H]23)OCO4)cc(OC)c1O [etoposide] .
< 5%
